Experiment: Release kinetics in vitro: hydrolysis in buffer at pH 7.4 and 37° C.
Format: physicochemical
Conditions: sodium phosphate buffer; half time of release, 60 mM sodium phosphate, 3 mM EDTA, 0.01% Tween20, pH 7.4, 37° C.; read-out: t1/2 buffer A (pH 7.4) (converted)
Catalogue of half-life readings, one per entry.
Just the number in h, nothing appended.

These solved cases illustrate the format of a correct answer.
molecule	half-life (h)
CCCN[C@H]1CCc2nc(NC(=O)COCC(=O)NCCCCCCSC3CC(=O)N(CCC(=O)NCCOCCOCCOCCOCCOCCOCCC(=O)NCC(N)=O)C3=O)sc2C1 (some centres unmarked)	31.2
CCCN[C@H]1CCc2nc(NC(=O)CNCC(=O)NCCCCCCSC3CC(=O)N(CCC(=O)NCCOCCOCCOCCOCCOCCOCCC(=O)NCC(N)=O)C3=O)sc2C1 (some centres unmarked)	26.4
CCCN[C@H]1CCc2nc(NC(=O)CNC(=O)NCCCCCCSC3CC(=O)N(CCC(=O)NCCOCCOCCOCCOCCOCCOCCC(=O)NCC(N)=O)C3=O)sc2C1 (some centres unmarked)	103
CCCN[C@H]1CCc2nc(NC(=O)CCC(=O)NCCSC3CC(=O)N(CCC(=O)NCCOCCOCCOCCOCCOCCOCCC(=O)NCC(N)=O)C3=O)sc2C1 (some centres unmarked)	28.8

Moving on to another molecule below.
Using the record for CCCN[C@H]1CCc2nc(NC(=O)CCC(=O)NCCCCCCSC3CC(=O)N(CCC(=O)NCCOCCOCCOCCOCCOCCOCCC(=O)NCC(N)=O)C3=O)sc2C1 (some centres unmarked) , report its half-life. 88.8

Values compiled from patent US20120191039A1.
